Property: Preemergence herbicidal rating IPOHE; scope: individual molecules
Test system: IPOHE (Ipomoea hederacea)
PROTOCOL_DESCRIPTION: Preemergence herbicidal evaluation
Type: in vivo, (L.) Jacq.
COND: Rate 0.1250 kg/ha; rated 4-5 weeks after treatment
Response field accepts a number only; no unit should be typed.

Guide cases for Preemergence herbicidal rating IPOHE, answers given:
- MOLECULE: "Cn1c(C(F)(F)F)cc(=O)n(-c2ccc3snc(C4OC(=O)C(C)(C)O4)c3c2)c1=O (centres unmarked)"
  ENDPOINT_VALUE: 9.0
- MOLECULE: "Cc1ccc(-c2nsc3ccc(-n4c(=O)cc(C(F)(F)F)n(C)c4=O)cc23)nc1"
  ENDPOINT_VALUE: 2.0
- MOLECULE: "COCC1COC(c2nsc3ccc(-n4c(=O)cc(C(F)(F)F)n(C)c4=O)cc23)O1 (centres unmarked)"
  ENDPOINT_VALUE: 9.0

q: Param item = Cn1c(C(F)(F)F)cc(=O)n(-c2ccc3snc(C4=NCCO4)c3c2)c1=O ; retrieve measured Preemergence herbicidal rating IPOHE.
a: 4.0

q: Param item = CC1=CC(C)(C)OC(c2nsc3ccc(-n4c(=O)cc(C(F)(F)F)n(C)c4=O)cc23)C1 (centres unmarked) ; retrieve measured Preemergence herbicidal rating IPOHE.
a: 3.0

* * *

Tested on: ECHCG (Echinochloa crus-galli)
PROTOCOL_DESCRIPTION: Preemergence herbicidal evaluation
Assay type: in vivo, (L.) Beau
COND: Rate 0.1250 kg/ha; preemergence; rated 4-5 weeks after treatment
Description: Results of herbicide evaluation are expressed on a rating scale (0-9). The scale is based upon a visual observation of plant stand, vigor, malformation, size, chlorosis and overall plant appearance as compared with a control. […]
// label = rule met if ECHCG preemergence herbicidal rating is not less than 6, otherwise rule not met

Check out these entries, answers already filled in.
- MOLECULE: "Cc1ccc(-c2nsc3ccc(N4C(=O)C5=C(CCCC5)C4=O)cc23)s1"
  LABEL_VALUE: "rule not met"
- MOLECULE: "Cc1ccc(-c2nsc3ccc(-n4c(=O)cc(C(F)(F)F)n(C)c4=O)cc23)s1"
  LABEL_VALUE: "rule not met"
- MOLECULE: "Cc1ccn(-c2nsc3ccc(-n4c(=O)cc(C(F)(F)F)n(C)c4=O)cc23)n1"
  LABEL_VALUE: "rule met"
- MOLECULE: "COC(=O)C(C)Oc1ccsc1-c1nsc2ccc(-n3c(=O)cc(C(F)(F)F)n(C)c3=O)cc12 (centres unmarked)"
  LABEL_VALUE: "rule not met"
- MOLECULE: "CC(=O)N1CCSC1c1nsc2ccc(-n3c(=O)cc(C(F)(F)F)n(C)c3=O)cc12 (centres unmarked)"
  LABEL_VALUE: "rule met"

q: Decide: is the reported value of ECHCG preemergence herbicidal rating for CN(C(=O)c1nsc2ccc(-n3c(=O)cc(C(F)(F)F)n(C)c3=O)cc12)c1ccc(Cl)cc1 equal to or greater than 6?
a: rule not met

q: Decide: is the reported value of ECHCG preemergence herbicidal rating for Cn1c(C(F)(F)F)cc(=O)n(-c2ccc3snc(C4OCCS4)c3c2)c1=O (centres unmarked) equal to or greater than 6?
a: rule met

* * *

Tested on: SETVI (Setaria viridis)
PROTOCOL_DESCRIPTION: Preemergence herbicidal evaluation
Type: in vivo, (L.) Beau
COND: Rate 0.1250 kg/ha; rated 4-5 weeks after treatment
ENDPOINT_LABEL: Preemergence herbicidal rating SETVI

- COMPOUND: "Cn1c(C(F)(F)F)cc(=O)n(-c2ccc3snc(C4OCC(c5ccccc5)O4)c3c2)c1=O (stereo not drawn)"
  ENDPOINT_VALUE: 9.0
- COMPOUND: "Cc1cc(C)nc(-c2nsc3ccc(-n4c(=O)cc(C(F)(F)F)n(C)c4=O)cc23)n1"
  ENDPOINT_VALUE: 9.0
- COMPOUND: "Cn1c(C(F)(F)F)cc(=O)n(-c2ccc3snc(C4OCCO4)c3c2)c1=O"
  ENDPOINT_VALUE: 9.0
- COMPOUND: "Cc1cccnc1-c1nsc2cc(F)c(N3C(=O)C4=C(CCCC4)C3=O)cc12"
  ENDPOINT_VALUE: 9.0
- COMPOUND: "Cn1c(C(F)(F)F)cc(=O)n(-c2ccc3snc(C4=NCCO4)c3c2)c1=O"
  ENDPOINT_VALUE: 1.0
- COMPOUND: "Cc1ccc(-c2nsc3ccc(-n4c(=O)cc(C(F)(F)F)n(C)c4=O)cc23)nc1"
  ENDPOINT_VALUE: 7.5
- COMPOUND: "Cc1sccc1-c1nsc2ccc(-n3c(=O)cc(C(F)(F)F)n(C)c3=O)cc12"
  ENDPOINT_VALUE: 9.0
- COMPOUND: "C[C@@H]1C[C@H](C)OC(c2nsc3ccc(-n4c(=O)cc(C(F)(F)F)n(C)c4=O)cc23)O1 (stereo partly drawn)"
  ENDPOINT_VALUE: 9.0

Turning to the following compound.
q: Param item = C=C1COC(c2nsc3ccc(-n4c(=O)cc(C(F)(F)F)n(C)c4=O)cc23)OC1 ; retrieve measured Preemergence herbicidal rating SETVI.
a: 9.0

* * *

System: ORYSAT (Rice, Tebonnet)
PROTOCOL_DESCRIPTION: Flooded paddy, post-transplant and postemergence rice tolerance
Format: in vivo, Oryza sativa, (L.) Tebonnet
COND: 0.0320 kg/ha into flood water; post-transplant rice; rated 3-4 weeks after treatment
Text: Results of herbicide evaluation are expressed on a rating scale (0-9). The scale is based upon a visual observation of plant stand, vigor, malformation, size, chlorosis and overall plant appearance as compared with a control. Plastic containers containing weeds which are 3 to 5 cm tall and rice seedlings at the 1.5 to 2.5 leaf stage are flooded with water. […] The compounds evaluated are identified in Example 87 and plant species used are identified in Example 89.
Property: herbicide rating (0-9) ORYSAT (rice tolerance); scope: individual molecules

Guide cases for herbicide rating (0-9) ORYSAT (rice tolerance), answers given:
- STRUCTURE_NOTATION: "Cc1cc(C)c(-c2nsc3ccc(-n4c(=O)cc(C(F)(F)F)n(C)c4=O)cc23)s1"
  ENDPOINT_VALUE: 2.0
- STRUCTURE_NOTATION: "Cn1c(C(F)(F)F)cc(=O)n(-c2cc3c(C4OCCO4)nsc3cc2F)c1=O"
  ENDPOINT_VALUE: 9.0
- STRUCTURE_NOTATION: "Cc1cscc1-c1nsc2ccc(-n3c(=O)cc(C(F)(F)F)n(C)c3=O)cc12"
  ENDPOINT_VALUE: 4.0
- STRUCTURE_NOTATION: "Cc1ccc(-c2nsc3ccc(-n4c(=O)cc(C(F)(F)F)n(C)c4=O)cc23)s1"
  ENDPOINT_VALUE: 4.0

q: Param item = Cn1c(C(F)(F)F)cc(=O)n(-c2ccc3snc(-c4ccsc4)c3c2)c1=O ; retrieve measured herbicide rating (0-9) ORYSAT (rice tolerance).
a: 7.0

* * *

Tested on: ORYSAT (Rice, Tebonnet)
PROTOCOL_DESCRIPTION: Preemergence herbicidal evaluation
Format: in vivo, Oryza sativa, (L.) Tebonnet
COND: Rate 0.0620 kg/ha; rated 4-5 weeks after treatment
Please note: Preemergence herbicidal rating ORYSAT exactly at 1 is N. Only values below 1 get Y.

- MOLECULE: "Cc1ccc(-c2nsc3ccc(-n4c(=O)cc(C(F)(F)F)n(C)c4=O)cc23)nc1"
  LABEL_VALUE: "Y"
- MOLECULE: "C[C@@H]1OC(c2nsc3cc(F)c(-n4c(=O)cc(C(F)(F)F)n(C)c4=O)cc23)O[C@@H]1C (stereo partly drawn) [Compound 63]"
  LABEL_VALUE: "N"
- MOLECULE: "Cc1nn(-c2nsc3ccc(-n4c(=O)cc(C(F)(F)F)n(C)c4=O)cc23)c(C)c1C"
  LABEL_VALUE: "Y"

For the next question, use this molecule.
q: Input Cn1c(C(F)(F)F)cc(=O)n(-c2ccc3snc(C4OC(=O)C(C)(C)O4)c3c2)c1=O (stereo not drawn) ; condition: Preemergence herbicidal rating ORYSAT strictly below 1. Does it hold?
a: N

* * *

Test system: ZEAMX (Corn, Field)
PROTOCOL_DESCRIPTION: Preemergence herbicidal evaluation
Assay type: in vivo, Zea mays, L.
COND: Rate 0.2500 kg/ha; rated 4-5 weeks after treatment
Description: Results of herbicide evaluation are expressed on a rating scale (0-9). The scale is based upon a visual observation of plant stand, vigor, malformation, size, chlorosis and overall plant appearance as compared with a control. […]
Property: Preemergence herbicidal rating ZEAMX; scope: individual compounds
Response field accepts a number only; no unit should be typed.

Guide cases for Preemergence herbicidal rating ZEAMX, answers given:
- COMPOUND: "C[C@@H]1OC(c2nsc3ccc(-n4c(=O)cc(C(F)(F)F)n(C)c4=O)cc23)O[C@@H]1C (stereo partly shown)"
  Preemergence herbicidal rating ZEAMX: 9.0
- COMPOUND: "Cn1c(C(F)(F)F)cc(=O)n(-c2ccc3snc(C4=NCCO4)c3c2)c1=O"
  Preemergence herbicidal rating ZEAMX: 3.0
- COMPOUND: "Cn1c(C(F)(F)F)cc(=O)n(-c2ccc3snc(C4OCCCS4)c3c2)c1=O (stereo not shown)"
  Preemergence herbicidal rating ZEAMX: 6.5
- COMPOUND: "Cc1cnn(-c2nsc3ccc(-n4c(=O)cc(C(F)(F)F)n(C)c4=O)cc23)c1"
  Preemergence herbicidal rating ZEAMX: 5.0
- COMPOUND: "CC1COC(c2nsc3ccc(-n4c(=O)cc(C(F)(F)F)n(C)c4=O)cc23)O1 (stereo not shown)"
  Preemergence herbicidal rating ZEAMX: 9.0
- COMPOUND: "C[C@@H]1C[C@H](C)OC(c2nsc3ccc(-n4c(=O)cc(C(F)(F)F)n(C)c4=O)cc23)O1 (stereo partly shown)"
  Preemergence herbicidal rating ZEAMX: 9.0
- COMPOUND: "Cn1c(C(F)(F)F)cc(=O)n(-c2ccc3snc(C4OC(=O)C(C)(C)O4)c3c2)c1=O (stereo not shown)"
  Preemergence herbicidal rating ZEAMX: 8.5
- COMPOUND: "Cc1cccnc1-c1nsc2cc(F)c(-n3c(=O)cc(C(F)(F)F)n(C)c3=O)cc12"
  Preemergence herbicidal rating ZEAMX: 9.0
- COMPOUND: "Cn1c(C(F)(F)F)cc(=O)n(-c2ccc3snc(-c4ccco4)c3c2)c1=O"
  Preemergence herbicidal rating ZEAMX: 6.0
- COMPOUND: "Cn1c(C(F)(F)F)cc(=O)n(-c2ccc3snc(C4OCC(c5ccccc5)O4)c3c2)c1=O (stereo not shown)"
  Preemergence herbicidal rating ZEAMX: 6.0

q: Param item = CCOc1cc(OCC)nc(-c2nsc3ccc(-n4c(=O)cc(C(F)(F)F)n(C)c4=O)cc23)n1 ; retrieve measured Preemergence herbicidal rating ZEAMX.
a: 6.0

q: Param item = Cn1c(C(F)(F)F)cc(=O)n(-c2ccc3snc(-c4sccc4CBr)c3c2)c1=O ; retrieve measured Preemergence herbicidal rating ZEAMX.
a: 2.5

q: Param item = Cn1c(C(F)(F)F)cc(=O)n(-c2cc3c(C4OCCCO4)nsc3cc2F)c1=O ; retrieve measured Preemergence herbicidal rating ZEAMX.
a: 9.0
